Listed next: entries and their corresponding kcat.
Substrate: CCCCCCCCCCC1=C(C)C(=O)C(OC)=C(OC)C1=O
Experiment: purified protein
Type: biochemical, Thiocapsa roseopersicina
Conditions: 200 µM sulfide, 50 mM Tris-HCl pH 8.0, 25 °C, anaerobic

- PROTEIN: "TrSqrF; SqrF WT (Thiocapsa roseopersicina; V331F) (protein) MHRITIVGSGFAGLTAVQSIRRTAPDAEITLVSNKAEFIYYPGLIWVPCGIRSGEDLRIDLRPFFKRMRVRHLAGEATGLSPDGRTLETTAGPVENDGLVIGSGGRFIKKLPGIEHAITPCEGIAAAEAIRDRVKAMDGGSIAMGFAGNPNEPSSMRGGPIFEFIFGMDSQLRKEGRRDRFRLHFFTPAERPGNRLGPKAVDGILAEMKRRGIETHLGHKLKSFSESKVTTEAGEFDADLILFMPGMTGNTWFDNTDLPRSPGGLLQADAHCRVPGYERVYVAGDSGSFPGPDWMPKQAHMADLQARAAVKNLLAELQGRAPSETFKVELFCIVDANDTGMLVARTEKNNWVLPSTRFFHWMKLGFEWWYLRPYR"
  VALUE_UNITS: "s⁻¹"
  kcat: 3.64
- PROTEIN: "TrSqrF; SqrF WT (Thiocapsa roseopersicina; I333F) (protein) MHRITIVGSGFAGLTAVQSIRRTAPDAEITLVSNKAEFIYYPGLIWVPCGIRSGEDLRIDLRPFFKRMRVRHLAGEATGLSPDGRTLETTAGPVENDGLVIGSGGRFIKKLPGIEHAITPCEGIAAAEAIRDRVKAMDGGSIAMGFAGNPNEPSSMRGGPIFEFIFGMDSQLRKEGRRDRFRLHFFTPAERPGNRLGPKAVDGILAEMKRRGIETHLGHKLKSFSESKVTTEAGEFDADLILFMPGMTGNTWFDNTDLPRSPGGLLQADAHCRVPGYERVYVAGDSGSFPGPDWMPKQAHMADLQARAAVKNLLAELQGRAPSETFKVELVCFVDANDTGMLVARTEKNNWVLPSTRFFHWMKLGFEWWYLRPYR"
  VALUE_UNITS: "s⁻¹"
  kcat: 1.2
